Target: spezifischen NPY-Rezeptors (Homo sapiens)
Construct: intrazellulären Ca⁺⁺-Konzentration in HEL-Zellen (Human Erythroleukemia-Zellen) fluorimetrisch mit Fura-2 als Indikator gemessen; endogenous in cells; host or cells: HEL (human erythroleukemia) cells
Sequence (P25929 1-384): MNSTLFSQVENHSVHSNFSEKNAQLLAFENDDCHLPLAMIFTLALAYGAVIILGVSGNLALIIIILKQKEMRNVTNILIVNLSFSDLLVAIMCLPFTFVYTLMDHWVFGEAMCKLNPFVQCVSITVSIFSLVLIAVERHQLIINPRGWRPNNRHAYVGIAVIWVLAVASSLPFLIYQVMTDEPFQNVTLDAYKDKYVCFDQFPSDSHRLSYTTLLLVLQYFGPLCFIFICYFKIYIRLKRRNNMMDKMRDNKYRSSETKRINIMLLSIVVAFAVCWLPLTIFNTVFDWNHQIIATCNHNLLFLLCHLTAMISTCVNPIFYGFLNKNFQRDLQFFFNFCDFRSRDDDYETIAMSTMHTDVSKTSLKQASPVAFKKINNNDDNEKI
Assay: Inhibition of the NPY-induced rise of intracellular Ca++ in HEL cells (fluorimetric, Fura-2; method of Motulsky and Michel)
Format: cell-based
Settings: HEL-Zellen, antagonists added at 10⁻⁴ bis 10⁻⁶ (unit inferred), Schild-Plot-Analyse, read-out: pA2 Hemmung des Ca^++-Anstieges (converted)
assayReadout: Kb (µM)
Give a bare numeral; the unit µM is implied.

## Input Tell me the measured Kb of N=C(NCCCc1c[nH]cn1)NCCOC(c1ccccc1)c1ccccc1 , please.
## Output 100

## Input Tell me the measured Kb of Cc1cc(Br)cnc1CCCCNC(=N)NCCCc1c[nH]cn1 , please.
## Output 9.12

## Input Tell me the measured Kb of N=C(NCCCc1c[nH]cn1)NCCC(c1cc(F)cc(F)c1)c1ccccn1 (stereo not shown) , please.
## Output 19.1

## Input Tell me the measured Kb of Cc1cc(Br)cnc1N(CCNC(=N)NCCCc1c[nH]cn1)Cc1ccccc1 , please.
## Output 1.32
